Kindly state normalized growth for each of the entries shown.
test: chemical genetic growth profiling, strain panel (AID 1159580);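 also: tested at 20 µM; growth read once vehicle control cultures reached saturation at 30 °C; 1 = growth at the plate median or of vehicle wells; lower values mean less growth of the strain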; conditions: S. cerevisiae deletion strains, growth OD, locus YOL136C, strain PFK27, active compounds read low
Out of some 5,500 compounds screened, about 2,000 (36%) were called active. About 18% were inconclusive and are not listed. Some of the results follow.
API note: the answer field is a bare number with no unit suffix.

Query block: Specify normalized growth for "Cc1cc(/C(N)=N\OC(=O)C(C)(C)C)cc(/C(N)=N\OC(=O)C(C)(C)C)c1" and stop.
Result block: 0.962

Query block: Return reported normalized growth. Input compound: "CCOC(=O)/C(C#N)=C(\Nc1ccc(C(=O)OCC)cc1)SC"
Result block: 0.912

Query block: Check the records and state normalized growth for "CSc1n[nH]c(-c2cc(C(C)(C)C)oc2C)c1C#N"
Result block: 0.906

Query block: Let me know recorded normalized growth for "Cc1onc(-c2c(Cl)cccc2Cl)c1C(=O)O/N=C(/N)Cc1ccc(C(C)(C)C)cc1" , thanks.
Result block: 1.02

Query block: Give recorded normalized growth. "Cc1ccc(-c2csc(-c3ccncc3)n2)cc1"
Result block: 0.814

Query block: Specify normalized growth for "CSc1sc(C(=O)Sc2ccccc2)cc1S(=O)(=O)C(C)C" and stop.
Result block: 0.929

Query block: Identify normalized growth associated with the compound "O=S(=O)(Nc1ccccc1Oc1ccccc1)c1ccc(-c2ccno2)s1"
Result block: 0.908

Query block: Look up and report measured normalized growth for this entry: "Brc1ccc(-c2csc(-c3ccncc3)n2)cc1"
Result block: 0.846

Query block: Find the measured normalized growth of O=C(CSC1=NNC(c2ccccn2)S1)Nc1ccccc1 (stereo unspecified) and report it.
Result block: 0.967

Query block: Please look at this compound and report its normalized growth: "Cc1ccc2nc(-c3ccc4c(c3)OCCO4)cn2c1"
Result block: 0.929

Query block: Indicate the recorded normalized growth value for this compound: "O=S(=O)(Oc1ccc(-c2csnn2)cc1)c1ccccc1Cl"
Result block: 0.916
